Target: human AR (Homo sapiens)
Construct: Reporter Cells used in these assays expressed a native receptor (AR)
Sequence (P10275 1-920): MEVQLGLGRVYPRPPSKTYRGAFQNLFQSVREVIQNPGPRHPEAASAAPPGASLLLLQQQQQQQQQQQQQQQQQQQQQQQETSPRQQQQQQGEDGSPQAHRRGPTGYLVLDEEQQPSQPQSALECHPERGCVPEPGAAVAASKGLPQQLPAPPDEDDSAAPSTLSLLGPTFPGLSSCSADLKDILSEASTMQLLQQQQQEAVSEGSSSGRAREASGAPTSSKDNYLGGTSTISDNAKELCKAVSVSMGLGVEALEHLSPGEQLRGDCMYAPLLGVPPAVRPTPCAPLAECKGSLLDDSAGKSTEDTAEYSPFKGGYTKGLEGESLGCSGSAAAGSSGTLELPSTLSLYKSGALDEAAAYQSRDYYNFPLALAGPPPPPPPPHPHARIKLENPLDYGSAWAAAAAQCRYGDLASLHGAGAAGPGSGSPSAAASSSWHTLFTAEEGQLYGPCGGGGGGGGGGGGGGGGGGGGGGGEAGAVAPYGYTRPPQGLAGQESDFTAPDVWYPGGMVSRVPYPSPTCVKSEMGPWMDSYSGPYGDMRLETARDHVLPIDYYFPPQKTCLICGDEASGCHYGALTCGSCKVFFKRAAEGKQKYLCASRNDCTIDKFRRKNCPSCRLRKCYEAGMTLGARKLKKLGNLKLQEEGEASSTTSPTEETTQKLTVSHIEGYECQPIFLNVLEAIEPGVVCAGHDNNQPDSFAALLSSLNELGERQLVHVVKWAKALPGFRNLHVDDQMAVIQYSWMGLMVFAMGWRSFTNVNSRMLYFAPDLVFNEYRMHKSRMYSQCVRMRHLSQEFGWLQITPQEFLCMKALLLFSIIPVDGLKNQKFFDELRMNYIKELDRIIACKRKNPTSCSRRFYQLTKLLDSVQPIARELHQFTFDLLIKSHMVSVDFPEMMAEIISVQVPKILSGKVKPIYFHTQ
Experiment: Indigo Biosciences AR reporter cell assay (AR inhibition, antagonist mode)
Format: cell-based
Conditions: Table 1; luciferase reporter cells, 24 hr, EC80 of agonist 5α-dihydro-11-keto testosterone; read-out: AR Inhibition Indigo Cell Based: Avg IC50
Observation type: IC50

Worked examples, 2 compounds total:
>>> test_value("CC(Nc1ccc2nnc(C(F)(F)F)n2n1)c1ccc(F)cc1 (racemic) [Comparative Compound 1, reference compound]")
"51 to 500 nM"
>>> test_value("C[C@@H](Nc1ccc2nnc(C(F)(F)F)n2n1)c1ccc(F)cc1")
"< 50 nM"

Attention now turns to another entry.
Fill in: IC50 of C[C@H](Nc1ccc2nnc(C(F)(F)F)n2n1)c1ccc(F)cc1 [Comparative Compound 2, reference compound] is ___
> 501 nM
